target: SpBbc1; assay: SPOT peptide array binding signal intensity (averaged, normalized) (arbitrary units (background-subtracted, floor 0; scale differs between SH3 domains)); higher = stronger binding of the SH3 domain to the peptide
MEASUREMENT LABEL: SPOT peptide array binding signal intensity
Response field accepts a number only; no unit should be typed.

Lookup result for `LLIRWLILMPLVGSR` ; measured SPOT peptide array binding signal intensity: 22.8

Lookup result for `ISNFVPPNLPMRRFK` ; measured SPOT peptide array binding signal intensity: 36.5

Lookup result for `YHSRRHPLALGFKYV` ; measured SPOT peptide array binding signal intensity: 8.75

Every entry's value here was drawn from the supplement of paper PMC4466140.
